- assay: Zeta-potential measurement
- Format: physicochemical
- measurement.conditions: mean, Std Zeta in next column
Give measured Zeta Pot. / mV for each item. Keep answers brief.
Answers are plain numbers, in mV.

{"columns": ["substance", "Zeta Pot. / mV / mV"],
 "data": [
  ["CEIEIQINM [TM144]", -15.3],
  ["KAKAQANM [TM152]", -2.62],
  ["CKFKQFF [CK15]", 11.56],
  ["KIKQII [msis21]", -12.67],
  ["MKIKIQINM [TM41]", 9.13]
]}

Please report Zeta Pot. / mV for every entry that follows.
1. CKFKFQFNM [BL3]
2. KIKIKIKIYYYY [JR7]
3. CKIKQIINM [BL1]
4. KAKAKAQA [TG15]
5. CHLHLQL [CN9]
6. QCKIKIQINM [CK2]

[15.13, 13.3, 12.9, -9.01, -12.27, 11.37]
